All values here come from ChEMBL document CHEMBL1961873.

Biological target: Calcium/calmodulin-dependent protein kinase type II subunit delta (Homo sapiens);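 also: percent inhibition values are means, taken from the GSK PKIS kinase profiling set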
Settings: at 0.1 µM
READOUT_LABEL: inhibition (%)

chemical_smiles=Cc1cc(O)cc(C)c1/C=C/c1cncc(-c2nn[nH]n2)c1 units_text=% numeric_value=4.52
chemical_smiles=CS(=O)(=O)CCNCc1nc(-c2ccc3ncnc(Nc4ccc(F)c(Cl)c4)c3c2)cs1 units_text=% numeric_value=1.76
chemical_smiles=CS(=O)(=O)Nc1ccc(N/C=C2\C(=O)Nc3ccccc32)cc1 units_text=% numeric_value=-2.44
chemical_smiles=CS(=O)(=O)CCNCc1ccc(-c2ccc3ncnc(Nc4ccc(OCc5ccccc5)c(Cl)c4)c3c2)o1 units_text=% numeric_value=-1.29
chemical_smiles=COc1ccc(-c2coc3ncnc(N)c23)cc1 units_text=% numeric_value=3.92
chemical_smiles=CCn1c(-c2nonc2N)nc2c(C#CC(C)(C)O)nc(CN3CCCC3)cc21 units_text=% numeric_value=-0.33
chemical_smiles=COc1cc2ncn(-c3cc(OCc4ccccc4Cl)c(C(N)=O)s3)c2cc1OC units_text=% numeric_value=0.36
chemical_smiles=CC(C)=Cc1cccc2c1/C(=N/Nc1ccc(S(N)(=O)=O)cc1)C(=O)N2 units_text=% numeric_value=2.83
chemical_smiles=COC(=O)Nc1nc2cc(Oc3cccc(NC(=O)Nc4cc(C(F)(F)F)ccc4F)c3)ccc2[nH]1 units_text=% numeric_value=0.53
chemical_smiles=CCn1c(-c2nonc2N)nc2c(N3CCCC3)nccc21 units_text=% numeric_value=-2.38
